target: NMDA receptor; assay: Competition binding, [^3 H]CGP 39653, mouse cortical membranes; settings: 14 nM [^3 H]CGP 39653; mouse cortical membranes; mean ± S.D. of three experiments; N.E. = no effect at 0.01 to 100 uM
pKi: −log10 of the molar value.

- COMPOUND: "NC(CCCP(=O)(O)O)C(=O)O (stereo not shown)"
  pKi: 5.65
